Source listed as patent US20190144529A1.

Target: T1, human serum albumin (human, UniProt P02768 25-609)
T1 construct: mature; Bought purified serum albumin; also called HSA; Human albumin
Test: SPR, Fab captured; albumin taken as HSA;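 note: antibody held on a capture surface, albumin injected for 3 min association then dissociation followed, signals corrected using a blank reference flow cell and buffer-only injections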
OBSERVED_PROPERTY: koff (s⁻¹)

>>> quantitative_readout("CA645 gL4gH42 Fab (Fab, V domains shown, Fab: human gamma1 CH1, human kappa (Km3); Kabat numbering) VH: EVQLLESGGGLVQPGGSLRLSCAVSGIDLSNYAINWVRQAPGKGLEWIGIIWASGTTFYATWAKGRFTISRDNSKNTVYLQMNSLRAEDTAVYYCARTVPQYSTAPYFDLWGQGTLVTVSS VL: DIQMTQSPSSVSASVGDRVTITCQSSPSVWSNFLSWYQQKPGKAPKLLIYEASKLTSGVPSRFSGSGSGTDFTLTISSLQPEDFATYYCGGGYSSISDTTFGGGTKVEIK")
0.000222
>>> quantitative_readout("CA645 gL14gH5 Fab (Fab, V domains shown, Fab: human gamma1 CH1, human kappa (Km3); Kabat numbering) VH: EVQLLESGGGLVQPGGSLRLSCAVSGIDLSNYAINWVRQAPGKGLEWIGIIWASGTTFYATWAKGRFTISRDNSKNTVYLQMNSLRAEDTAVYYCARTVPGYSTAPYFDLWGQGTLVTVSS VL: DIQMTQSPSSVSASVGDRVTITCQSSPLVWSNFLSWYQQKPGKAPKLLIYEASKLTSGVPSRFSGSGSGTDFTLTISSLQPEDFATYYCGGGYSSISDTTFGGGTKVEIK")
"8.7e-05"
>>> quantitative_readout("CA645 gL4gH45 Fab (Fab, V domains shown, Fab: human gamma1 CH1, human kappa (Km3); Kabat numbering) VH: EVQLLESGGGLVQPGGSLRLSCAVSGIDLSNYAINWVRQAPGKGLEWIGIIWASGTTFYATWAKGRFTISRDNSKNTVYLQMNSLRAEDTAVYYCARTVPVYSTAPYFDLWGQGTLVTVSS VL: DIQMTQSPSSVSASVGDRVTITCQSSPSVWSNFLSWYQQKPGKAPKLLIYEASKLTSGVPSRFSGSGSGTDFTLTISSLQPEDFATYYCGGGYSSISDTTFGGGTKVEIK")
0.000444
>>> quantitative_readout("CA645 gL4gH40 Fab (Fab, V domains shown, Fab: human gamma1 CH1, human kappa (Km3); Kabat numbering) VH: EVQLLESGGGLVQPGGSLRLSCAVSGIDLSNYAINWVRQAPGKGLEWIGIIWASGTTFYATWAKGRFTISRDNSKNTVYLQMNSLRAEDTAVYYCARTVPTYSTAPYFDLWGQGTLVTVSS VL: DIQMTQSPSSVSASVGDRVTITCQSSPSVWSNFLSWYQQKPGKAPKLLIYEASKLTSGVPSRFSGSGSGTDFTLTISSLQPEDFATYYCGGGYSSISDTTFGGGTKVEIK")
0.000356
>>> quantitative_readout("CA645 gL27gH5 Fab (Fab, V domains shown, Fab: human gamma1 CH1, human kappa (Km3); Kabat numbering) VH: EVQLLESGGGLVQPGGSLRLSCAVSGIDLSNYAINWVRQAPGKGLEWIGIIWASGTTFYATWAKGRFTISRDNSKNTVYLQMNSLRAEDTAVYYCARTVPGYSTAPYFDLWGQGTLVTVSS VL: DIQMTQSPSSVSASVGDRVTITCQSSPSVWSNYLSWYQQKPGKAPKLLIYEASKLTSGVPSRFSGSGSGTDFTLTISSLQPEDFATYYCGGGYSSISDTTFGGGTKVEIK")
0.000586
>>> quantitative_readout("CA645 gL4gH44 Fab (Fab, V domains shown, Fab: human gamma1 CH1, human kappa (Km3); Kabat numbering) VH: EVQLLESGGGLVQPGGSLRLSCAVSGIDLSNYAINWVRQAPGKGLEWIGIIWASGTTFYATWAKGRFTISRDNSKNTVYLQMNSLRAEDTAVYYCARTVPLYSTAPYFDLWGQGTLVTVSS VL: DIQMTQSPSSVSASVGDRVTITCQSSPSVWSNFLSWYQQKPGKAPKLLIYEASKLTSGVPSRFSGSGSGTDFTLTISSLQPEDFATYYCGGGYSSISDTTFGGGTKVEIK")
0.000226
>>> quantitative_readout("CA645 gL10gH5 Fab (Fab, V domains shown, Fab: human gamma1 CH1, human kappa (Km3); Kabat numbering) VH: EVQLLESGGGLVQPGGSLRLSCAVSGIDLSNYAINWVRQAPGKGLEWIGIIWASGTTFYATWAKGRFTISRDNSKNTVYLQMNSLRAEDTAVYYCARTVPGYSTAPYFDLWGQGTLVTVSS VL: DIQMTQSPSSVSASVGDRVTITCQSSPAVWSNFLSWYQQKPGKAPKLLIYEASKLTSGVPSRFSGSGSGTDFTLTISSLQPEDFATYYCGGGYSSISDTTFGGGTKVEIK")
0.000172
>>> quantitative_readout("CA645 gL4gH27 Fab (Fab, V domains shown, Fab: human gamma1 CH1, human kappa (Km3); Kabat numbering) VH: EVQLLESGGGLVQPGGSLRLSCAVSGIDLSNYAINWVRQAPGKGLEWIGIIWGSGTTFYATWAKGRFTISRDNSKNTVYLQMNSLRAEDTAVYYCARTVPGYSTAPYFDLWGQGTLVTVSS VL: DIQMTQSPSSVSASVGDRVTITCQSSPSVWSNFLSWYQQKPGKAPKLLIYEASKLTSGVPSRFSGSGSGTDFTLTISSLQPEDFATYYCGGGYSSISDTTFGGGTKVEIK")
"8.4e-05"
>>> quantitative_readout("CA645 gL4gH43 Fab (Fab, V domains shown, Fab: human gamma1 CH1, human kappa (Km3); Kabat numbering) VH: EVQLLESGGGLVQPGGSLRLSCAVSGIDLSNYAINWVRQAPGKGLEWIGIIWASGTTFYATWAKGRFTISRDNSKNTVYLQMNSLRAEDTAVYYCARTVPEYSTAPYFDLWGQGTLVTVSS VL: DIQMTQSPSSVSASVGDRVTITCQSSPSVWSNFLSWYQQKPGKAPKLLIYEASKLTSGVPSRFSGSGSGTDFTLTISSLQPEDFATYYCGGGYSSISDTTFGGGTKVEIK")
0.000391
>>> quantitative_readout("CA645 gL4gH29 Fab (Fab, V domains shown, Fab: human gamma1 CH1, human kappa (Km3); Kabat numbering) VH: EVQLLESGGGLVQPGGSLRLSCAVSGIDLSNYAINWVRQAPGKGLEWIGIIWSSGTTFYATWAKGRFTISRDNSKNTVYLQMNSLRAEDTAVYYCARTVPGYSTAPYFDLWGQGTLVTVSS VL: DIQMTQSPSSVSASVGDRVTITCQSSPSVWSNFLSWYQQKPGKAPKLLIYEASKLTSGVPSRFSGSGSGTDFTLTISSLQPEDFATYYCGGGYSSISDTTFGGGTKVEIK")
0.00038
